Tested on: BDF1 mice, P388 leukemia ip, median survival T/C
Assay: NCI In Vivo Anticancer Drug Screen. Data for tumor model P388 Leukemia (intraperitoneal) in B6D2F1 (BDF1) mice
Conditions: endpoint: median survival time; dose: 100.0 mg/kg/injection; schedule: Q01DX009 (ip); vehicle: Klucel (hydroxypropylcellulose) (HPC); higher = longer survival
Inconclusive results and toxic doses are left out.
# T/C per entry

compound	measured result
CN(C)c1ccc2c(Cl)cc(Cl)nc2c1	117 % of control
ClC(c1ccccc1)C1(Br)C=c2ccccc2=C1 (centres undefined)	90 % of control
COc1ccc(P(=S)(S)c2ccc(OC)cc2)cc1	100 % of control
CCN(CC)CCCC#CCN1CCCCC1	100 % of control

Next item in the queue.
## Input Reported T/C, compound CCOC(=O)c1c[nH]c(=S)n1C : ____
## Output 95 % of control

====

# T/C per entry
Tested on: BDF1 mice, P388 leukemia ip, median survival T/C
Test: NCI In Vivo Anticancer Drug Screen. Data for tumor model P388 Leukemia (intraperitoneal) in B6D2F1 (BDF1) mice
Conditions: endpoint: median survival time; dose: 100.0 mg/kg/injection; schedule: Q01DX001 (ip); vehicle: Klucel (hydroxypropylcellulose) (HPC); higher = longer survival
Inconclusive results and toxic doses are left out.

A selection of reference data follows.
compound	T/C
O=C(c1ccccc1)C1Cc2ccccc2C1=O (stereo not given)	100 % of control
COc1ccc(N2CSC(=S)N(c3ccc(OC)cc3)C2)cc1	100 % of control
Cc1noc(/N=C/c2ccccc2)c1C	108 % of control
COc1ccc(/C=C(/C#N)C(N)=O)cc1Br	100 % of control

Next item in the queue.
## Input Reported T/C, compound Cc1ccc2oc(=O)c(-c3cc4oc(=O)sc4cc3O)c(O)c2c1 : ____
## Output 100 % of control

====

System: BDF1 mice, P388 leukemia ip, median survival T/C
Assay: NCI In Vivo Anticancer Drug Screen. Data for tumor model P388 Leukemia (intraperitoneal) in B6D2F1 (BDF1) mice
Settings: endpoint: median survival time; dose: 12.5 mg/kg/injection; schedule: Q01DX009 (ip); vehicle: water; higher = longer survival
Toxic doses and inconclusive results are not listed.
property label: T/C

A selection of reference data follows.
compound	measured result
O=C(O)CCC1(c2ccccc2)CCCC1=O (stereo not given)	97 % of control
NN=C1CCC(=NN)CC1	100 % of control
COc1ccc(C2C=C(c3ccc4c(c3)OCO4)Oc3c2c(=O)oc2ccccc32)cc1OC (stereo not given)	99 % of control

## Input Reported T/C, compound CCN(CC)Cc1c(C)[nH]c2ccc(N(C)C)cc2c1=O : ____
## Output 120 % of control

## Input Reported T/C, compound CN(C(N)=O)c1c(O)nc(N)[nH]c1=O : ____
## Output 106 % of control

====

System: BDF1 mice, P388 leukemia ip, median survival T/C
Assay: NCI In Vivo Anticancer Drug Screen. Data for tumor model P388 Leukemia (intraperitoneal) in B6D2F1 (BDF1) mice
Settings: endpoint: median survival time; dose: 25.0 mg/kg/injection; schedule: Q04DX003 (ip); vehicle: saline with Tween-80
Toxic doses and inconclusive results are not listed. The calls were made as follows: active = survival T/C of 150% or more; inactive = T/C below 125% in these data.
Thanks in advance; please answer with one of these: TRUE (active), FALSE (inactive)

Use these answered entries as a reference point.
compound	assigned class
COc1cc[n+]([O-])cc1/C=C/c1c[n+]([O-])ccc1OC	FALSE
CCCCCCCCCCCCCCCCNC(C)c1ccccc1 (centres undefined)	FALSE
C[n+]1c(-c2ccccc2)c2cc(N)ccc2c2ccc(N)cc21	TRUE
O=C(Nc1cccc2ccccc12)C(F)(F)F	FALSE

## Input GET /call?item= O=C(Nc1nc(Cl)nc(Cl)n1)N1CCOCC1 returns the recorded outcome of this test.
## Output FALSE

## Input GET /call?item= CCCCNC(C)(C)C(SSC(c1cccs1)C(C)(C)NCCCC)c1cccs1 (centres undefined) returns the recorded outcome of this test.
## Output FALSE

## Input GET /call?item= S=C(S)NNc1ccccc1 returns the recorded outcome of this test.
## Output FALSE

## Input GET /call?item= COc1ccc(/C(C#N)=C2C=C/C(=N\O)C(C)=C/2Cl)cc1 returns the recorded outcome of this test.
## Output FALSE

## Input GET /call?item= Cc1nc2ccccc2nc1CBr returns the recorded outcome of this test.
## Output FALSE

## Input GET /call?item= O=C(O)c1ccc(Cl)cc1Nc1ccc(Cl)cc1 returns the recorded outcome of this test.
## Output FALSE

## Input GET /call?item= O=C(O)C(=O)O.[U] returns the recorded outcome of this test.
## Output FALSE

## Input GET /call?item= O=C(O)c1ccc(N=NSc2ncnc3nc[nH]c23)cc1O returns the recorded outcome of this test.
## Output TRUE

## Input GET /call?item= CC#CC(=O)SCCNC(=O)CC returns the recorded outcome of this test.
## Output FALSE
